Field: % Native product. Provide a value for each of the molecules that follow.
Molecular target: human mitochondrial DNA polymerase γ (Pol-γ exo-mutant) (Homo sapiens, UniProt P54098, D198A/E200A)
Sequence (P54098 26-1239 D198A/E200A limits assumed): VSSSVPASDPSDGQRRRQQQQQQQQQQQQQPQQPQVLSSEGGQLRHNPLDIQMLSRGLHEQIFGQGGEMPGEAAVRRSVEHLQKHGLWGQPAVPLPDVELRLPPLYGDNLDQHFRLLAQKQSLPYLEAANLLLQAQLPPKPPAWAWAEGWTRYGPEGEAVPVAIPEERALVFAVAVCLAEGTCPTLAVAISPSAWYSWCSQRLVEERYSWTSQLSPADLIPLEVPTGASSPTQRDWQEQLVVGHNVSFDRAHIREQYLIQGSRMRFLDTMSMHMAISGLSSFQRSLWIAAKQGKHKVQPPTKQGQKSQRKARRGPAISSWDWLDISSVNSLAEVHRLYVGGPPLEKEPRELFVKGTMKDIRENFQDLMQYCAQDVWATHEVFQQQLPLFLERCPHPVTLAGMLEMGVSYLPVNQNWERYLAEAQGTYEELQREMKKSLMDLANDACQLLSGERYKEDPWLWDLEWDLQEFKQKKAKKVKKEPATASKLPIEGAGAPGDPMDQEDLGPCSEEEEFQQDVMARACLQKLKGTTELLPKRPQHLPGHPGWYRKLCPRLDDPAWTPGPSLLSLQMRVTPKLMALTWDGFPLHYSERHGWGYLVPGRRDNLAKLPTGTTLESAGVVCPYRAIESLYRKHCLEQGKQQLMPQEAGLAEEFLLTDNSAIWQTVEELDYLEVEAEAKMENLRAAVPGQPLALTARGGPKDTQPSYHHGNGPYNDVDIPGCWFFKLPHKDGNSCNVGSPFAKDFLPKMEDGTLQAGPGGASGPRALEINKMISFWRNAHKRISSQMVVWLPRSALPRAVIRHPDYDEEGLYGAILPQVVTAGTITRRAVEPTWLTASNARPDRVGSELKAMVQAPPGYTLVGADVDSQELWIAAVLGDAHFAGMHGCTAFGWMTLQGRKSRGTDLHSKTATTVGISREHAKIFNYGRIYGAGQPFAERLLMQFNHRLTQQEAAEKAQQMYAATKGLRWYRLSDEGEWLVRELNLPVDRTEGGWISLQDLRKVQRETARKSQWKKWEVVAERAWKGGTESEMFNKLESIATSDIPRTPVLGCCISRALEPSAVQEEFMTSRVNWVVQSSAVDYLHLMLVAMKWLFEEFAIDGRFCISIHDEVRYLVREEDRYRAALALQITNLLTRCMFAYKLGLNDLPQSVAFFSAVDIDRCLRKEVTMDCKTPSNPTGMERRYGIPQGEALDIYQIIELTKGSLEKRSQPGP
Test: Pol-γ primer extension
Type: biochemical
Conditions: Native:F ratio 1:1
Marks after values point to notes of the source that are not given here.

[in] Returns the measured % Native product for the input molecule. Input: O=c1[nH]c(=O)n([C@@H]2O[C@H](COP(=O)(O)OP(=O)(O)OP(=O)(O)O)[C@@H](O)[C@@H]2F)cc1I [FIAU-TP, fialuridine triphosphate, reference compound]
[out] 91.7^b %

[in] And Nc1ccn([C@@H]2O[C@H](COP(=O)(O)OP(=O)(O)OP(=O)(O)O)[C@@H](O)[C@H]2F)c(=O)n1 ?
[out] 96.2^a %

[in] And Nc1ncnc2c1ncn2[C@@H]1O[C@H](COP(=O)(O)OP(=O)(O)OP(=O)(O)O)[C@@H](O)[C@H]1F ?
[out] 96.3^a %

[in] And Nc1nc2c(ncn2[C@@H]2O[C@H](COP(=O)(O)OP(=O)(O)OP(=O)(O)O)[C@@H](O)[C@H]2F)c(=O)[nH]1 ?
[out] 85.0^a %

[in] And O=c1ccn([C@@H]2O[C@H](COP(=O)(O)OP(=O)(O)OP(=O)(O)O)[C@@H](O)[C@H]2F)c(=O)[nH]1 ?
[out] 83.8^a %

* * *

Field: CC50 at 11 days. Provide a value for each of the molecules that follow.
Experiment: Cytotoxicity, sulforhodamine B assay, SNB-78
Assay type: cell-based, human
Conditions: human, SNB-78 cells (CNS), CC50, SNB-78, Glucose media, day 11

[in] Returns the measured CC50 at 11 days for the input molecule. Input: Nc1ccn([C@H]2CC[C@@H](CO)O2)c(=O)n1 [ddC, 2′,3′-Dideoxycytidine]
[out] > 20 µM

[in] And CC(C)OC(=O)[C@H](C)N[P@](=O)(OC[C@H]1O[C@@H](n2ccc(=O)[nH]c2=O)[C@](C)(F)[C@@H]1O)Oc1ccccc1 [SOF, Sofosbuvir] ?
[out] > 250 µM

* * *

Tested on: Molt-4 (blood)
Test: Cytotoxicity, sulforhodamine B assay, Molt-4
Type: cell-based, human
Settings: Molt-4, Glucose media, day 11
Assay metric: CC50 (µM)
Give the value in µM but do not write µM after it.

[in] Returns the measured CC50 for the input compound. Input: Nc1nc2c(ncn2[C@@H]2O[C@H](CO)[C@@H](O)[C@H]2F)c(=O)[nH]1
[out] 15

* * *

Format: in vivo, Sprague Dawley rats
Conditions: rat liver; monomer liberated from revusiran (STC), single 30 mg/kg sc
Assay metric: Cmax
# output: number + unit

[in] Returns the measured Cmax for the input compound. Input: Nc1nc2c(ncn2[C@@H]2O[C@H](CO)[C@@H](O)[C@H]2F)c(=O)[nH]1
[out] 10.8 µM

* * *

Target: Human mitochondrial RNA polymerase (POLRMT) (Homo sapiens, UniProt O00411)
Sequence (O00411 42-1230): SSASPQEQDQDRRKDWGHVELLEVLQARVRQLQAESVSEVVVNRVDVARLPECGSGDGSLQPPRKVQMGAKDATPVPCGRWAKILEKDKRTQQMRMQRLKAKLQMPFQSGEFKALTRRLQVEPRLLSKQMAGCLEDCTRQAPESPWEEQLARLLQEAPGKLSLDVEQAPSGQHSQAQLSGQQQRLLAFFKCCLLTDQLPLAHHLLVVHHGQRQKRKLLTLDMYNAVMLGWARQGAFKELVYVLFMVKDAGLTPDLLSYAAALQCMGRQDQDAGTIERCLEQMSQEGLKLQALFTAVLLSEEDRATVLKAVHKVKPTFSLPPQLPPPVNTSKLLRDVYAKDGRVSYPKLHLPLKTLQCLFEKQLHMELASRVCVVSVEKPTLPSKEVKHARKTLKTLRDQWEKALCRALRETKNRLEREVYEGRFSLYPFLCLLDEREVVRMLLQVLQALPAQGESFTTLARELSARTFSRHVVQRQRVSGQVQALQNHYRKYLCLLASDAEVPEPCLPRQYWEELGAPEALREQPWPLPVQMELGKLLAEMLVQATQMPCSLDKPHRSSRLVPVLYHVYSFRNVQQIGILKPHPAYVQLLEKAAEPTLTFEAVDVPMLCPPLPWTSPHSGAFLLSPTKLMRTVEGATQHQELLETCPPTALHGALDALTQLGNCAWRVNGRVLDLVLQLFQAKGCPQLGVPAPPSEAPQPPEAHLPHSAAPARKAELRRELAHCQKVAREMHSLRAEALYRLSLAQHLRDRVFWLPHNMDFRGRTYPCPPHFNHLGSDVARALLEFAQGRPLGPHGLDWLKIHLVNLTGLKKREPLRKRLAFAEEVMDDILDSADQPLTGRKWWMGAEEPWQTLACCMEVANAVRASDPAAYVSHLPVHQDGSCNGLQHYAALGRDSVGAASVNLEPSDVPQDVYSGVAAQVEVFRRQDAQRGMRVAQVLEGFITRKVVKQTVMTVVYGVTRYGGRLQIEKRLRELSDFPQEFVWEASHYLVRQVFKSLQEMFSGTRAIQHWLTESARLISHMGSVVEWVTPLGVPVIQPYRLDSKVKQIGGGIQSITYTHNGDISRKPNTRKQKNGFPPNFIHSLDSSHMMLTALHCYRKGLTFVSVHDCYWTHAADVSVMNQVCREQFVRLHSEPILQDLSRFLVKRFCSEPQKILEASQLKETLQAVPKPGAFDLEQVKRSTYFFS
Assay: POLRMT primer extension
Assay type: biochemical
Conditions: Native:F ratio 1:100
Marks after values point to notes of the source that are not given here.
Assay metric: % Native product

[in] Returns the measured % Native product for the input compound. Input: Nc1ccn([C@@H]2O[C@H](COP(=O)(O)OP(=O)(O)OP(=O)(O)O)[C@@H](O)[C@H]2F)c(=O)n1
[out] 37.0^b %

[in] And Nc1ncnc2c1ncn2[C@@H]1O[C@H](COP(=O)(O)OP(=O)(O)OP(=O)(O)O)[C@@H](O)[C@H]1F ?
[out] 51.4^a %

[in] And O=c1[nH]c(=O)n([C@@H]2O[C@H](COP(=O)(O)OP(=O)(O)OP(=O)(O)O)[C@@H](O)[C@@H]2F)cc1I [FIAU-TP, fialuridine triphosphate, reference compound] ?
[out] 24.10^b %

[in] And O=c1ccn([C@@H]2O[C@H](COP(=O)(O)OP(=O)(O)OP(=O)(O)O)[C@@H](O)[C@H]2F)c(=O)[nH]1 ?
[out] 35.6^a %

[in] And Nc1nc2c(ncn2[C@@H]2O[C@H](COP(=O)(O)OP(=O)(O)OP(=O)(O)O)[C@@H](O)[C@H]2F)c(=O)[nH]1 ?
[out] 69.2^b %

* * *

Field: % 2′-F product. Provide a value for each of the compounds that follow.
Target: human mitochondrial DNA polymerase γ (Pol-γ exo-mutant) (Homo sapiens, UniProt P54098, D198A/E200A)
Assay: Pol-γ primer extension
Assay type: biochemical
Settings: F only
Marks after values point to notes of the source that are not given here.

[in] Returns the measured % 2′-F product for the input compound. Input: Nc1nc2c(ncn2[C@@H]2O[C@H](COP(=O)(O)OP(=O)(O)OP(=O)(O)O)[C@@H](O)[C@H]2F)c(=O)[nH]1
[out] 73.9^a %

[in] And Nc1ccn([C@@H]2O[C@H](COP(=O)(O)OP(=O)(O)OP(=O)(O)O)[C@@H](O)[C@H]2F)c(=O)n1 ?
[out] 94.0^a %

[in] And O=c1[nH]c(=O)n([C@@H]2O[C@H](COP(=O)(O)OP(=O)(O)OP(=O)(O)O)[C@@H](O)[C@@H]2F)cc1I [FIAU-TP, fialuridine triphosphate, reference compound] ?
[out] 94.4^a %

[in] And Nc1ncnc2c1ncn2[C@@H]1O[C@H](COP(=O)(O)OP(=O)(O)OP(=O)(O)O)[C@@H](O)[C@H]1F ?
[out] 94.2^a %

[in] And O=c1ccn([C@@H]2O[C@H](COP(=O)(O)OP(=O)(O)OP(=O)(O)O)[C@@H](O)[C@H]2F)c(=O)[nH]1 ?
[out] 87.3^a %

* * *

Molecular target: DNA polymerase γ (Pol-γ) (Homo sapiens, UniProt P54098)
Sequence (P54098 whole entry): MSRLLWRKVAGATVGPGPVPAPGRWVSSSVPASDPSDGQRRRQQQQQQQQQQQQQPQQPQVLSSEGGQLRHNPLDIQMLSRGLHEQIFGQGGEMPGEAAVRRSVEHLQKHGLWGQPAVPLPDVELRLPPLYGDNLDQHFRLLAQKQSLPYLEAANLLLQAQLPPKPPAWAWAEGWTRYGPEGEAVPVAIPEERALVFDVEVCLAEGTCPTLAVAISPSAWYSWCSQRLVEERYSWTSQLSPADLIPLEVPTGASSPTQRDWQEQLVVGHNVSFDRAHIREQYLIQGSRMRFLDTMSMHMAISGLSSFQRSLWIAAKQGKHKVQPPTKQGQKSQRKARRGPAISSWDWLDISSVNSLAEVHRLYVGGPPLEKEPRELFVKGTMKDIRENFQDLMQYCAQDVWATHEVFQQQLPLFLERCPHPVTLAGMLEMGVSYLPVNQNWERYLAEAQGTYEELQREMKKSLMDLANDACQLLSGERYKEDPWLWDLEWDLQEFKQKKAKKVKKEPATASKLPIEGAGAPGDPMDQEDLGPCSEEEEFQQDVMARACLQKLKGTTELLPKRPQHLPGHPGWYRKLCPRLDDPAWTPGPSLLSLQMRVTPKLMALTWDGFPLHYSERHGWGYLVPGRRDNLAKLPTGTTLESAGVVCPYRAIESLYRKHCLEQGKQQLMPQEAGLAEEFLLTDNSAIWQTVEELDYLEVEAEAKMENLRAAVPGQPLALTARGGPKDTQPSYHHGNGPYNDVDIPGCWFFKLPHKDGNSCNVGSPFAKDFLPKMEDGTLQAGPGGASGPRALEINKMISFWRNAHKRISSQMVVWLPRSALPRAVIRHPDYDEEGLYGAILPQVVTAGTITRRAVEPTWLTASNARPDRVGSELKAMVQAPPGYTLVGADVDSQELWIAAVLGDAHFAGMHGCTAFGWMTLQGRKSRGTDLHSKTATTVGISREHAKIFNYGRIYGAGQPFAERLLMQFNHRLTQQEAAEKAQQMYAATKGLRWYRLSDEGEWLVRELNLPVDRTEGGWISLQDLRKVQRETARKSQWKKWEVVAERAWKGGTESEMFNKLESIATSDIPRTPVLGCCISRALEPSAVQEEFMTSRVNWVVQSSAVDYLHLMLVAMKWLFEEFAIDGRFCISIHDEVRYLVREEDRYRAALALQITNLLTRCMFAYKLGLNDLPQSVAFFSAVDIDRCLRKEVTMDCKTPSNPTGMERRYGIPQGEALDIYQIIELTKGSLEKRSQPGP
Experiment: DNA polymerase inhibition assay, Pol-γ
Assay type: biochemical
Conditions: 1 h, 3H-dTTP incorporation
Assay metric: IC90

[in] Returns the measured IC90 for the input molecule. Input: O=P(O)(O)OP(=O)(O)OP(=O)(O)OC[C@H]1O[C@@H](n2cnc3c(O)ncnc32)[C@H](F)[C@@H]1O [2′-F-ITP]
[out] > 200 µM

[in] And Nc1nc2c(ncn2[C@@H]2O[C@H](COP(=O)(O)OP(=O)(O)OP(=O)(O)O)[C@@H](O)[C@H]2F)c(=O)[nH]1 [2′-F-GTP] ?
[out] > 200 µM

[in] And O=c1ccn([C@@H]2O[C@H](COP(=O)(O)OP(=O)(O)OP(=O)(O)O)[C@@H](O)[C@H]2F)c(=O)[nH]1 [2′-F-UTP] ?
[out] > 200 µM

* * *

Tested on: Caki-1 (kidney)
Assay: Cytotoxicity, sulforhodamine B assay, Caki-1
Format: cell-based, human
Conditions: Caki-1, Glucose media, day 11
Assay metric: CC50
# output: number + unit

[in] Returns the measured CC50 for the input molecule. Input: Nc1nc2c(ncn2[C@@H]2O[C@H](CO)[C@@H](O)[C@H]2F)c(=O)[nH]1 [2′-F-G, 2′-F-guanosine]
[out] 32 µM

* * *

Test system: Molt-4 (blood)
Test: Cytotoxicity, sulforhodamine B assay, Molt-4
Type: cell-based, human
Conditions: Molt-4, Galactose media, day 11
Assay metric: CC50 (µM)
Give the value in µM but do not write µM after it.

[in] Returns the measured CC50 for the input compound. Input: Nc1nc2c(ncn2[C@@H]2O[C@H](CO)[C@@H](O)[C@H]2F)c(=O)[nH]1 [2′-F-G, 2′-F-guanosine]
[out] 12

* * *

Target: UniProt P09884
Sequence (P09884 whole entry): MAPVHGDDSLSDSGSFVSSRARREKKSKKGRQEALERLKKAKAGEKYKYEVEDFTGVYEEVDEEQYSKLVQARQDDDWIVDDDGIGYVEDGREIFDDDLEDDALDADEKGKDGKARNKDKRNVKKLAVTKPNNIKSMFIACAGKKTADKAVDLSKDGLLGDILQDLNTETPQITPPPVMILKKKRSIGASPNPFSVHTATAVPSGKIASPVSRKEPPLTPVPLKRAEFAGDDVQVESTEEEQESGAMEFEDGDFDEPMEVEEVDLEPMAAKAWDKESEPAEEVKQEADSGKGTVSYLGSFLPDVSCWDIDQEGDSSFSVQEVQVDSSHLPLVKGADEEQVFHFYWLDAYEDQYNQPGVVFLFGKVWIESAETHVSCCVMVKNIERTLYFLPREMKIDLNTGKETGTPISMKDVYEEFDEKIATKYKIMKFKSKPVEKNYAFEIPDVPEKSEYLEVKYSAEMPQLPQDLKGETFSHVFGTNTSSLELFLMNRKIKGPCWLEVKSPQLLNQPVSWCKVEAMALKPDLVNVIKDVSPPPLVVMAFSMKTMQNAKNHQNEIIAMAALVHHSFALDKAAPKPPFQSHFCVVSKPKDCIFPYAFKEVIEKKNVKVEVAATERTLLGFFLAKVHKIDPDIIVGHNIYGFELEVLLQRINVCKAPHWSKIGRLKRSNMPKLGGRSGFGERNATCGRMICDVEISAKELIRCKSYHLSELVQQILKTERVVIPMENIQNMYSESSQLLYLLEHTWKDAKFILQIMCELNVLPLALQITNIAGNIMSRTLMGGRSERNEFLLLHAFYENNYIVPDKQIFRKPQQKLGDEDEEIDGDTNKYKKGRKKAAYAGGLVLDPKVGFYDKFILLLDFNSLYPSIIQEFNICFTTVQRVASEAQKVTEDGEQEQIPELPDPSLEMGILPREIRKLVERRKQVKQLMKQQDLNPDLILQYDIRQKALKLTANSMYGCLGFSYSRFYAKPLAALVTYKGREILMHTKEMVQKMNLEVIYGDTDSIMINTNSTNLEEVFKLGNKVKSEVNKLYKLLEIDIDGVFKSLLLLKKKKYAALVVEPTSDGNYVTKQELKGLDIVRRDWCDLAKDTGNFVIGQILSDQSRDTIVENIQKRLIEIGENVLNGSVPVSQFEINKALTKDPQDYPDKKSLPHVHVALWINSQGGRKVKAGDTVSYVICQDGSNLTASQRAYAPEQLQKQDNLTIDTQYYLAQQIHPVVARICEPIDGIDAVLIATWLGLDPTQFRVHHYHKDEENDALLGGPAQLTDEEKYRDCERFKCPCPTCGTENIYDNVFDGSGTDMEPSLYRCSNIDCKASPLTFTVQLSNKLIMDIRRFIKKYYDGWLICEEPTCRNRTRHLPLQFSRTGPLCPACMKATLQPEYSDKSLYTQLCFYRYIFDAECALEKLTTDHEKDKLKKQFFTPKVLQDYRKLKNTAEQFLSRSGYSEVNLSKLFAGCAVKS
Assay: DNA polymerase inhibition assay, Pol-α
Assay type: biochemical
Conditions: Pol-α; 1 h, 3H-dTTP incorporation
Field: IC90. Provide a value for each of the molecules that follow.

[in] Returns the measured IC90 for the input molecule. Input: O=c1[nH]c(=O)n([C@@H]2O[C@H](COP(=O)(O)OP(=O)(O)OP(=O)(O)O)[C@@H](O)[C@@H]2F)cc1I [FIAU-TP, fialuridine triphosphate, reference compound]
[out] 13.7 µM

[in] And O=c1ccn([C@@H]2O[C@H](COP(=O)(O)OP(=O)(O)OP(=O)(O)O)[C@@H](O)[C@H]2F)c(=O)[nH]1 ?
[out] > 200 µM

[in] And Nc1nc2c(ncn2[C@@H]2O[C@H](COP(=O)(O)OP(=O)(O)OP(=O)(O)O)[C@@H](O)[C@H]2F)c(=O)[nH]1 ?
[out] > 200 µM

[in] And Nc1ncnc2c1ncn2[C@@H]1O[C@H](COP(=O)(O)OP(=O)(O)OP(=O)(O)O)[C@@H](O)[C@H]1F ?
[out] > 200 µM

[in] And O=P(O)(O)OP(=O)(O)OP(=O)(O)OC[C@H]1O[C@@H](n2cnc3c(O)ncnc32)[C@H](F)[C@@H]1O ?
[out] > 200 µM

[in] And Nc1ccn([C@@H]2O[C@H](COP(=O)(O)OP(=O)(O)OP(=O)(O)O)[C@@H](O)[C@H]2F)c(=O)n1 ?
[out] > 200 µM
